Values compiled from ChEMBL document CHEMBL1201862.

Target: Sentrin-specific protease 8 (Homo sapiens, UniProt Q96LD8)
Sequence (Q96LD8 whole entry): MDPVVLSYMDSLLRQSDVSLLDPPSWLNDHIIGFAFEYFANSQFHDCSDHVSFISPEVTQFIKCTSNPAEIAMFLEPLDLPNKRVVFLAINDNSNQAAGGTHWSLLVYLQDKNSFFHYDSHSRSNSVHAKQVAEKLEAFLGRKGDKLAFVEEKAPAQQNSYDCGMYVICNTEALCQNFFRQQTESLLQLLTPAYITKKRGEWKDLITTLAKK
Format: functional
The source made the active and inactive calls.
Metric: IC50

Query Smiles: COc1cc(N(C(C)=O)c2ccc(O)c(C(=O)O)c2)c2ncccc2c1
IC50: 7.7 µM (active)
//
Query Smiles: Cc1[nH][nH]c(=O)c1C(c1c(C)[nH][nH]c1=O)c1cn(Cc2ccc(Cl)c(Cl)c2)c2ccccc12
IC50: 5.81 µM (active)
//
Query Smiles: Cc1cc(=O)n(-c2ccc3ccccc3n2)[nH]1
IC50: 24.2 µM (active)

[Q] Kindly indicate its recorded IC50. Item: "CC[C@H](CO)Oc1cc(NCc2cccc(N)c2)c2ncn(C(C)C)c2c1"
[A] 1.65 µM (active)
